Reported pKd values are given for each entry in this list.
Target: T1, ARHGAP21, Q5T5U3
T1 sequence (Q5T5U3 45-169, limits assumed, looked up): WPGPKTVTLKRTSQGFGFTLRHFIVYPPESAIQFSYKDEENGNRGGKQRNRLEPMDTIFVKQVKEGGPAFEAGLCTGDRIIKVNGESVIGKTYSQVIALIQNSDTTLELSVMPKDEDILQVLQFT
Experiment: holdup assay
Parameters: key: below the threshold = too weak to quantify, mostly under pKd 3.1 to 4
Conditions: plain residues with an end cap or a label only (N-terminal biotin on a linker: ado-ado)
Quantity Measured: pKd

INSERT INTO assay_data (binder, observed) VALUES
  ('SFISKKEWYV [NECTIN1, Q15223]', 4.04),
  ('TRKRSGEAAV [PFKM, P08237]', 3.83),
  ('LKDDELKTKL [SLCO1A2, P46721]', 3.91),
  ('DDASLPVSDV [PLEKHA1, Q9HB21]', 3.5),
  ('ARSAAASNYV [CLDN4, O14493]', 3.9);

Numbers sourced from paper PMC9482650.
